method.description: Induction of nitric oxide release in phosphate buffer assessed as nitrite level at 0.1 mM measured every 15 mins for 120 mins followed by every 30 mins for 180 mins by Griess assay
Type: physicochemical
measurement.parameters: 100 µM

{"compound": "CCCCC1OC(=O)c2cc(NC(=O)c3ccc(OCCO[N+](=O)[O-])cc3)ccc21 (centres undefined)", "Activity / µmol/L": 2.21}
{"compound": "CCCCC1OC(=O)c2cc(NC(=O)c3ccccc3OCCCO[N+](=O)[O-])ccc21 (centres undefined)", "Activity / µmol/L": 2.18}
{"compound": "CCCCC1OC(=O)c2cc(NC(=O)c3ccc(OCCCO[N+](=O)[O-])cc3)ccc21 (centres undefined)", "Activity / µmol/L": 3.88}
{"compound": "CCCCC1OC(=O)c2cc(NC(=O)CCO[N+](=O)[O-])ccc21 (centres undefined)", "Activity / µmol/L": 12.88}

The measured values listed here are drawn from ChEMBL document CHEMBL2346564.
